assay text: Selectivity ratio of Ki for mu opioid receptor in mouse whole brain membranes without cerebellum to Ki for kappa opioid receptor in guinea pig cerebellum
Type: cell membranes
Catalogue of molecules with associated Ratio Ki
readout label: Ratio Ki

1. CN(CCC[C@]1(O)[C@H]2CCN(C)[C@@H]1Cc1ccc(O)c(O)c12)C(=O)/C=C/c1ccoc1 3.77
2. CC(C)CN1CC[C@H]2c3c(ccc(O)c3O)C[C@@H]1[C@]2(O)CCCN(C)C(=O)/C=C/c1ccoc1 78.4
3. CCN1CC[C@H]2c3c(ccc(O)c3O)C[C@@H]1[C@]2(O)CCCN(C)C(=O)/C=C/c1ccoc1 17.6
4. CN(CCC[C@]1(O)[C@H]2CCN(CCF)[C@@H]1Cc1ccc(O)c(O)c12)C(=O)/C=C/c1ccoc1 16.6
5. CCCN1CC[C@H]2c3c(ccc(O)c3O)C[C@@H]1[C@]2(O)CCCN(C)C(=O)/C=C/c1ccoc1 58.4

====

EC50 for assorted compounds
study system: Kappa-type opioid receptor (Homo sapiens)
Sequence (P41145 whole entry): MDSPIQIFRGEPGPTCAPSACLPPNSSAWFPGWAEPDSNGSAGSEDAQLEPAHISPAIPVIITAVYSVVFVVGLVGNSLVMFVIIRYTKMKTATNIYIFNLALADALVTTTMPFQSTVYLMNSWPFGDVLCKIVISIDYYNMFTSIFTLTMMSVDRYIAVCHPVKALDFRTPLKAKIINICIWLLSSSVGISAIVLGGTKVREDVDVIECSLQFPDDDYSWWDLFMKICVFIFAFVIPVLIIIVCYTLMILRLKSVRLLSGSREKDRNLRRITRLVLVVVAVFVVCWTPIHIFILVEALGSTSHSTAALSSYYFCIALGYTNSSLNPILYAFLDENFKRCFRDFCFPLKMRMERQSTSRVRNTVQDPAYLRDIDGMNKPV
assay text: Agonist activity at human recombinant kappa opioid receptor expressed in CHO cells after 2 hrs by [35S]-GTPgammaS binding assay
Type: functional, cell-based
readout label: EC50 (nM)

1) CN(CCC[C@]1(O)[C@H]2CCN(CC(F)F)[C@@H]1Cc1ccc(O)c(O)c12)C(=O)/C=C/c1ccoc1 22.4
2) CN(CCC[C@]1(O)[C@H]2CCN(CC(F)(F)F)[C@@H]1Cc1ccc(O)c(O)c12)C(=O)/C=C/c1ccoc1 32.2
3) CCCN1CC[C@H]2c3c(ccc(O)c3O)C[C@@H]1[C@]2(O)CCCN(C)C(=O)/C=C/c1ccoc1 2.72
4) CCN1CC[C@H]2c3c(ccc(O)c3O)C[C@@H]1[C@]2(O)CCCN(C)C(=O)/C=C/c1ccoc1 3.79
5) CN(CCC[C@]1(O)[C@H]2CCN(C)[C@@H]1Cc1ccc(O)c(O)c12)C(=O)/C=C/c1ccoc1 11.3
6) CC(C)CN1CC[C@H]2c3c(ccc(O)c3O)C[C@@H]1[C@]2(O)CCCN(C)C(=O)/C=C/c1ccoc1 8.07
7) CN(CCC[C@]1(O)[C@H]2CCN(CCF)[C@@H]1Cc1ccc(O)c(O)c12)C(=O)/C=C/c1ccoc1 2.23

====

Observed Ki, system Kappa-type opioid receptor (Cavia porcellus, UniProt P41144).
readout label: Ki

1. CN(CCC[C@]1(O)[C@H]2CCN(C)[C@@H]1Cc1ccc(O)c(O)c12)C(=O)/C=C/c1ccoc1 0.735 nM
2. CN(CCC[C@]1(O)[C@H]2CCN(CC(F)(F)F)[C@@H]1Cc1ccc(O)c(O)c12)C(=O)/C=C/c1ccoc1 4.58 nM
3. CN(CCC[C@]1(O)[C@H]2CCN(CC(F)F)[C@@H]1Cc1ccc(O)c(O)c12)C(=O)/C=C/c1ccoc1 2.19 nM
4. CCCN1CC[C@H]2c3c(ccc(O)c3O)C[C@@H]1[C@]2(O)CCCN(C)C(=O)/C=C/c1ccoc1 0.328 nM

====

study system: Kappa-type opioid receptor (Cavia porcellus, UniProt P41144)
Sequence (P41144 whole entry): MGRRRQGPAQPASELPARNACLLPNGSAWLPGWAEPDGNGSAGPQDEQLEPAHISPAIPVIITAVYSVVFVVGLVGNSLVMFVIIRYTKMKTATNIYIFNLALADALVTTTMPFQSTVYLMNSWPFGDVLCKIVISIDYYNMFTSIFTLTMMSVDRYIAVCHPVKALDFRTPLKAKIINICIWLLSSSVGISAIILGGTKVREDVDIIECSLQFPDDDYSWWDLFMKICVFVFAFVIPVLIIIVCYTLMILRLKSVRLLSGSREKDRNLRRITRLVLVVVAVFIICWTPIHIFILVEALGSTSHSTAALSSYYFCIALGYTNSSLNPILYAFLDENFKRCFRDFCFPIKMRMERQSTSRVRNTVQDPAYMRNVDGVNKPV
pKi: −log10 of the molar value.
readout label: pKi

1. CN(CCC[C@]1(O)[C@H]2CCN(CCF)[C@@H]1Cc1ccc(O)c(O)c12)C(=O)/C=C/c1ccoc1 9.29
2. CCN1CC[C@H]2c3c(ccc(O)c3O)C[C@@H]1[C@]2(O)CCCN(C)C(=O)/C=C/c1ccoc1 9.20
3. CC(C)CN1CC[C@H]2c3c(ccc(O)c3O)C[C@@H]1[C@]2(O)CCCN(C)C(=O)/C=C/c1ccoc1 9.23
